Just for reference, patent US7056679 is where these values come from.

Biological target: T1, DGI-9 (HEC) (UniProt O14777 1-642, limits assumed)
T1 sequence (looked up): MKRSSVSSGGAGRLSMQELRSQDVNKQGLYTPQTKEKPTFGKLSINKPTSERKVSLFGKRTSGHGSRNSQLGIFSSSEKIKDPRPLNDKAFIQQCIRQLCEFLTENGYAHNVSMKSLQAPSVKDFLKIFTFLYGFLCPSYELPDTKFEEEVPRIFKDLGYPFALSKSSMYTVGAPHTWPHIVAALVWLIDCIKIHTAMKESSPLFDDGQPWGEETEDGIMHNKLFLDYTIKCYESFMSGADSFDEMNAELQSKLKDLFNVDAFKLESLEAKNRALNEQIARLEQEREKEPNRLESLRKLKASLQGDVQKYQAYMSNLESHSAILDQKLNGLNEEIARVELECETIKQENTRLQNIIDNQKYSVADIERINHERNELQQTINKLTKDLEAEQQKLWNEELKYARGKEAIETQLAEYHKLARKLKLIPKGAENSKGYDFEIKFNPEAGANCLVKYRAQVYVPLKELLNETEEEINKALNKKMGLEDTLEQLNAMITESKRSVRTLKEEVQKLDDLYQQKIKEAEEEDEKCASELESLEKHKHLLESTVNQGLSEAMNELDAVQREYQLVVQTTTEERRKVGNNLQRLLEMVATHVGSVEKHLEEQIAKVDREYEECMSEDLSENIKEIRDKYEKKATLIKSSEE
Test: phage ELISA; DGI-9 signal over LDH signal

binder | DGI9/LDH [ratio]
WDWSRFGAQLRGAILGRATGGAPVPYPDPLEPR (library 20R (the E-tag is described for library 20F); not shown: phage gene III coat protein (pCANTAB5E)) [DGI9-20M-4-A627] | 6.5
FLLQDFIMDAGSFVKPIGVGGAPVPYPDPLEPR (library 20F; not shown: phage gene III coat protein (pCANTAB5E)) [DGI9-20M-4-A414] | 8.1
MAGFRGSGLSGYSEARLPRVGAPVPYPDPLEPR (library 20F; not shown: phage gene III coat protein (pCANTAB5E)) [DGI9-20M-4-E3] | 7.1
SRLALSSQHGLSLVAGRRRGGAPVPYPDPLEPR (library 20R (the E-tag is described for library 20F); not shown: phage gene III coat protein (pCANTAB5E)) [DGI9-20M-4-A12] | 2.1
